Would you mind telling me the reported inhibition at 1.25 µM of each entry?
# targetOrSystem: mUSP18 (Mus musculus)
# Construct: (46-368); His-tag (N); made in house
# Sequence (Q9WTV6 46-368): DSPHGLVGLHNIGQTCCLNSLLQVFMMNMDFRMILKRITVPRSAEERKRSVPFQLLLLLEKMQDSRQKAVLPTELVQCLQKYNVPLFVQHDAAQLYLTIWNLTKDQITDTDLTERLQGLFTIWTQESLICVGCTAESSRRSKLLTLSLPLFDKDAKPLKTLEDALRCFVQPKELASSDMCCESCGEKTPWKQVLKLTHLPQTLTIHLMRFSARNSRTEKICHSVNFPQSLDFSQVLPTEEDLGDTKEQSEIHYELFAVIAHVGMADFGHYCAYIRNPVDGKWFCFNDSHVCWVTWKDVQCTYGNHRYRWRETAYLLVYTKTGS
# experimentSummary: High-throughput screening, ISG15ct-RhoMP, single dose 1.25 µM
# Format: biochemical, murine
# appliedConditions: mUSP18 %inhibition; carboxylic acid (CA) with coupling reagents DIC/HOBT; read-out: %inh CA + DIC/HOBT
Numbers only, in %.

Completed entries (count: 5):
| compound | inhibition at 1.25 µM [%] |
| --- | --- |
| O=C(O)c1cnc(-c2cccnc2)s1 | -9.05 |
| N#CCC(=O)O | -14.2 |
| CC(=O)CCCCC(=O)O | -11.3 |
| O=C(O)C1CCN(Cc2ccc(Cl)s2)CC1 | 10.7 |
| CCn1nccc1-c1cc(C(=O)O)no1 | 2.58 |

For the 5 compounds below, give their inhibition at 1.25 µM values.
1. O=C(O)c1cccc(COc2cccc(F)c2)c1
2. O=C(O)C1CC(=O)N(CCOc2ccccc2Cl)C1 (stereo not drawn)
3. Cc1ccc(-c2cc(C(=O)O)n[nH]2)s1
4. O=C(O)c1cnn(CC2CCC2)c1
5. Cc1ccc([1C@@H]2C[1C@H]2C(=O)O)s1

[A]
[3.17, 9.2, 6.81, -8.94, 8.26]

====

# targetOrSystem: USP30 (Homo sapiens, UniProt Q70CQ3)
# Sequence (Q70CQ3 57-517): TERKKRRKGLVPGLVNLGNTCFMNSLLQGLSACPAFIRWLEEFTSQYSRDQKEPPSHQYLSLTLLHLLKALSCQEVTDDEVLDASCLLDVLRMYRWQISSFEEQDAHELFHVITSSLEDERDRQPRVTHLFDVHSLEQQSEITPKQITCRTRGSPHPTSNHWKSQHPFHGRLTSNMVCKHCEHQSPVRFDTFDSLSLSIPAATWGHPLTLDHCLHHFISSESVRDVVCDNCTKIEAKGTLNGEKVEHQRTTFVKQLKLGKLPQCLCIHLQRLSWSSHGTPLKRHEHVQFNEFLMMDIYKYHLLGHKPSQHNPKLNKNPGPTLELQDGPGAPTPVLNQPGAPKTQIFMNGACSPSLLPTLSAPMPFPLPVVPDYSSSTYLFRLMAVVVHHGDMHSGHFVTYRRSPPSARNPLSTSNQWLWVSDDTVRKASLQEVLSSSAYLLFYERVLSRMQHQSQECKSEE
# experimentSummary: High-throughput screening, Ub-RhoMP, single dose 1.25 µM
# Assay type: biochemical
# Set-up: USP30 CD (57-517); purchased Ubiquigent 64-0057-050
# appliedConditions: individual amine building block (plate NCN-5)
observable: BB %inhibition USP30
Form entry: enter the amount, then its unit.

Completed entries (count: 3):
| structureSmilesString | BB %inhibition USP30 |
| --- | --- |
| N#CN1CCC(n2cc(N)cn2)CC1 | 0.9% |
| N#CN1CC[C@@H](N)C1 | 5.9% |
| N#CN1CCC[C@@H](N)C1 | 5.1% |

For the 5 compounds below, give their BB %inhibition USP30 values.
1. N#CN1C[C@H](N)[C@@H](O)C1
2. N#CN1CC[C@H](N)C1
3. N#CN1CC[C@H](C(=O)Nc2nc3c(s2)CNCC3)C1
4. N#CN1CC(N)C1
5. N#CN1CCC[C@H](N)C1

[A]
1: 7.5%; 2: 3.7%; 3: -2.0%; 4: -0.656%; 5: -2.4%

====

# targetOrSystem: OTUB2 (Homo sapiens, UniProt Q96DC9)
# Sequence (Q96DC9 1-234): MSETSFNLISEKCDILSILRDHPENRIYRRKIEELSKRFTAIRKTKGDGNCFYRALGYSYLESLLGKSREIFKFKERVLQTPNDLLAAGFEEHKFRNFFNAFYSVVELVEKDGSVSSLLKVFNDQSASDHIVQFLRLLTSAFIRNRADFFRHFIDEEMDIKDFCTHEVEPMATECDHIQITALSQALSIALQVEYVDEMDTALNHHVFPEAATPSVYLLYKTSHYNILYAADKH
observable: IC50

[Q] Lab note: record IC50 of N#CN1CC[C@@H](NC(=O)c2cc(-c3cccc(Cl)c3)no2)C1 [Compound 1] tested on OTUB2 (Homo sapiens, UniProt Q96DC9).
[A] > 200 µM

# credit: paper PMC12668310
